Settings: human, 10000 µM
Quantity Name: Solubility ratio
Please state the value as a number alone, without comment.

## Task Param item = O=C(O)COc1ccc(Cl)cc1 ; retrieve measured Solubility ratio.
## Result 1.08

## Task Next molecule: O=C(O)C(CCOc1ccc(Br)cc1)C(=O)O
## Result 1.134

## Task Now the molecule CSc1ccc(OCC(=O)O)cc1
## Result 1.027

## Task Another: O=C(O)COCc1ccc(Br)cc1
## Result 1.118

## Task Input Cc1cc(C)c(COCC(=O)O)c(C)c1
## Result 1.054

## Task Same question, Cc1ccc(C)c(OCCCC(C)(C)C(=O)O)c1 this time
## Result 1.073

## Task Also need O=C(O)COCc1ccc(I)cc1 , thanks.
## Result 1.09

## Task And O=C(O)CSc1ccc(Br)cc1 ?
## Result 1.063

## Task Next molecule: CC(C)(OCc1ccc(Br)cc1)C(=O)O
## Result 1.086

## Task Next molecule: C=CCc1ccc(OCC(=O)O)c(OC)c1
## Result 1.043

## Task Then Cc1ccc(OCC(=O)O)c(Br)c1 ?
## Result 1.035

## Task Then this molecule: O=C(O)COCc1ccc(Cl)cc1
## Result 1.104

## Task Now try Cc1cc(Br)c(OCC(=O)O)c(Br)c1 .
## Result 1.043

## Task Repeat with O=C(O)COCc1cc(Cl)cc(Cl)c1
## Result 1.149

## Task Query CC(C)(Oc1ccc(CCNC(=O)c2ccc(Cl)cc2)cc1)C(=O)O [BEZAFIBRATE] next
## Result 0.932

## Task Another molecule: COc1cc(OCC(=O)O)cc(OC)c1OC
## Result 1.013

## Task Also, Cc1cc(C)c(C)c(OCC(=O)O)c1 please.
## Result 1.086

## Task # repeat for Nc1ccc(CSCC(=O)O)cc1
## Result 1.031

## Task Also, CN(C)c1ccc(OCC(=O)O)cc1.Cl please.
## Result 1.044

## Task Queued: O=C(O)COC(c1ccccc1)c1ccc(Cl)cc1 (centres undefined)
## Result 1.032

## Task Another: O=C(O)COCc1ccc(Cl)cc1Cl
## Result 1.13

## Task Could you do the same for O=C(O)COc1ccc2c(c1)Cc1ccccc1-2 , please?
## Result 1.042

## Task How about O=C(O)C(CCc1ccccc1)C(=O)O ?
## Result 1.058

## Task Further, for COc1ccc(COCC(=O)O)cc1 ?
## Result 1.012

## Task Same lookup for O=C(O)CSc1c(F)c(F)c(F)c(F)c1F , please.
## Result 1.053

## Task Continue with COc1cc(Cl)ccc1COCC(=O)O
## Result 1.121

## Task Next record, please: O=C(O)COc1ccc(I)cc1
## Result 1.046

## Task Also Cc1ccc(C)c(OCC(=O)O)c1 ?
## Result 1.055

## Task What about this molecule? Cc1ccc(COCC(=O)O)cc1
## Result 1.059

## Task Consider next the molecule O=C(O)COc1ccc(Cl)cc1Cl in the same way.
## Result 1.083

## Task Further, for O=C(O)COc1ccc(Br)cc1 ?
## Result 1.093

## Task Let us now turn to Cc1cc(C)cc(OCC(=O)O)c1
## Result 1.048

## Task Could you do the same for CC(C)(Oc1ccc(Cl)cc1)C(=O)Oc1ccccc1C(=O)O , please?
## Result 1.044

## Task Can you handle O=C(O)COc1cccc(Cl)c1Cl next?
## Result 1.057

## Task And what about the molecule O=C(O)COCc1ccc(Cl)c(Cl)c1 ?
## Result 1.162

## Task For O=C(O)COc1ccc(Cl)c(Cl)c1 then?
## Result 1.117

## Task For CC(C)(C)c1ccc(OCC(=O)O)cc1 then?
## Result 1.012

## Task Continue with Cc1cc(OCC(=O)O)ccc1Cl
## Result 1.08

## Task Check O=C(O)COc1c(Br)cc(Br)cc1Br too.
## Result 1.077

## Task And for CC(C)(Oc1ccc(Cl)cc1)C(=O)O ?
## Result 1.064

## Task Lookup Cc1ccc(COCC(=O)O)cc1C
## Result 1.086

## Task Thanks! And O=C(O)COCc1ccc(Oc2ccccc2)cc1 ?
## Result 1.088

## Task Quick one: COc1cccc(OCC(=O)O)c1OC
## Result 1.036

## Task Same for O=C(O)CSCc1ccc(Br)cc1
## Result 1.053

## Task Can you check Cc1ccc(COCC(=O)O)c(C)c1 next?
## Result 1.054

## Task Check Nc1ccc(OCC(=O)O)cc1 too.
## Result 1.01

## Task Please answer likewise for Cc1cc(OCC(=O)O)cc(C)c1Cl
## Result 1.054

## Task Likewise for O=C(O)CSc1ccc(Cl)cc1 ?
## Result 1.069

## Task # repeat for Cc1cc(OCC(=O)O)cc(C)c1Br
## Result 1.004

## Task Again, but for O=C(O)CCOCc1ccc(Cl)c(Cl)c1
## Result 1.142

## Task Now try O=C(O)COc1ccc2c(c1)oc1ccccc12 .
## Result 1.054

## Task Next: COc1cc(COCC(=O)O)ccc1C
## Result 1.081

## Task Then COc1cc(OC)cc(OCC(=O)O)c1 ?
## Result 1.052

## Task Can you handle Cc1ccc(OCC(=O)O)cc1C next?
## Result 1.06

## Task And then O=C(O)CSc1cc(Cl)c(Cl)cc1Cl , what is it?
## Result 1.032

## Task What do we get for O=C(O)COc1ccc2c(c1)CCC2 ?
## Result 1.134

## Task Again, but for Cc1cc(C)cc(COCC(=O)O)c1
## Result 1.031

## Task And what about the molecule N[C@@H](Cc1ccccc1)C(=O)O ?
## Result 1.048

## Task Same for O=C(O)COc1ccc([N+](=O)[O-])cc1
## Result 1.043

* * *

Would you kindly list Solubility ratio for each of these compounds?
Conditions: human, 5000 µM
Description: Solubility ratio ([HbS+drug (5 mM)]/[HbS-drug])
# print the numeric value only

## Task Look up Solubility ratio for this compound: O=C(O)COc1ccc2c(c1)Cc1ccccc1-2
## Result 1.029

## Task // next record O=C(O)COc1ccc(I)cc1
## Result 1.04

## Task Here is the next compound: O=C(O)CSc1c(F)c(F)c(F)c(F)c1F
## Result 1.025

## Task Input Cc1cc(C)c(COCC(=O)O)c(C)c1
## Result 1.031

## Task Now try O=C(O)COCc1ccc(Br)cc1 .
## Result 1.059

## Task Follow-up item: Cc1ccc(COCC(=O)O)c(C)c1
## Result 1.05

## Task Consider next the compound COc1cc(Cl)ccc1COCC(=O)O in the same way.
## Result 1.062

## Task Now the compound O=C(O)CCOCc1ccc(Cl)c(Cl)c1
## Result 1.062

## Task Next: O=C(O)CSc1ccc(Cl)cc1
## Result 1.026

## Task Now this one: COc1ccc(COCC(=O)O)cc1
## Result 0.996

## Task Next entry: O=C(O)COC(c1ccccc1)c1ccc(Cl)cc1 (centres undefined)
## Result 1.002

## Task Repeat with Cc1ccc(OCC(=O)O)c(Br)c1
## Result 1.031

## Task Ok, now Cc1ccc(C)c(OCC(=O)O)c1
## Result 1.031

## Task Another compound to check: COc1cc(COCC(=O)O)ccc1C
## Result 1.034

## Task Can you handle O=C(O)CSc1ccc(Br)cc1 next?
## Result 1.023

## Task Also, Cc1cc(OCC(=O)O)ccc1Cl please.
## Result 1.05

## Task # iterate: O=C(O)C(CCc1ccccc1)C(=O)O
## Result 1.007

## Task Same read-out for Cc1cc(C)c(C)c(OCC(=O)O)c1 ?
## Result 1.035

## Task Query Cc1ccc(COCC(=O)O)cc1 next
## Result 1.017

## Task Continue with C=CCc1ccc(OCC(=O)O)c(OC)c1
## Result 1.033

## Task Lookup O=C(O)COc1ccc2c(c1)CCC2
## Result 1.054

## Task Another compound: COc1cc(OC)cc(OCC(=O)O)c1
## Result 1.03

## Task Queued: COc1cc(OCC(=O)O)cc(OC)c1OC
## Result 0.987

## Task Also need O=C(O)COc1ccc2c(c1)oc1ccccc12 , thanks.
## Result 1.033

## Task Then what about the compound O=C(O)COc1cccc(Cl)c1Cl ?
## Result 1.025

## Task // next record O=C(O)COc1ccc(Cl)cc1
## Result 1.04

## Task Okay, and CC(C)(Oc1ccc(Cl)cc1)C(=O)O [CLOFIBRIC ACID] ?
## Result 1.018

## Task Would you mind doing O=C(O)COc1ccc(Cl)c(Cl)c1 as well?
## Result 1.061

## Task One more compound: Nc1ccc(CSCC(=O)O)cc1
## Result 1.006

## Task Check O=C(O)COCc1ccc(Oc2ccccc2)cc1 too.
## Result 1.034

## Task Try the compound CC(C)(Oc1ccc(CCNC(=O)c2ccc(Cl)cc2)cc1)C(=O)O [BEZAFIBRATE]
## Result 0.954

## Task Let us now turn to O=C(O)CSc1cc(Cl)c(Cl)cc1Cl
## Result 1.018

## Task // query: Cc1cc(OCC(=O)O)cc(C)c1Br
## Result 0.996

## Task Follow-up entry: Cc1ccc(C)c(OCCCC(C)(C)C(=O)O)c1 [GEMFIBROZIL]
## Result 1.04

## Task Input CSc1ccc(OCC(=O)O)cc1
## Result 1.035

## Task Then CC(C)(C)c1ccc(OCC(=O)O)cc1 ?
## Result 1.004

## Task Also need Cc1cc(C)cc(OCC(=O)O)c1 , thanks.
## Result 1.035

## Task # repeat for O=C(O)CSCc1ccc(Br)cc1
## Result 1.024

## Task # repeat for Cc1cc(OCC(=O)O)cc(C)c1Cl
## Result 1.033

## Task Same question for O=C(O)COc1ccc(Cl)cc1Cl [2,4-DICHLOROPHENOXYACETIC ACID] please.
## Result 1.049

## Task # repeat for COc1cccc(OCC(=O)O)c1OC
## Result 1.017

## Task Consider next the compound O=C(O)C(CCOc1ccc(Br)cc1)C(=O)O in the same way.
## Result 1.057

## Task Please do the same for Cc1ccc(COCC(=O)O)cc1C as well.
## Result 1.06

## Task What do we get for O=C(O)COCc1ccc(Cl)cc1Cl ?
## Result 1.079

## Task Can you handle Cc1cc(Br)c(OCC(=O)O)c(Br)c1 next?
## Result 1.077

## Task Quick one: O=C(O)COCc1ccc(I)cc1
## Result 1.039

## Task Another compound to look at: O=C(O)COc1ccc(Br)cc1
## Result 1.049

## Task Proceed to CC(C)(OCc1ccc(Br)cc1)C(=O)O
## Result 1.048

## Task // same read-out, input: O=C(O)COc1ccc([N+](=O)[O-])cc1
## Result 0.983

## Task Item: N[C@@H](Cc1ccccc1)C(=O)O [PHENYLALANINE]
## Result 1.036

## Task # iterate: O=C(O)COc1c(Br)cc(Br)cc1Br
## Result 1.018

## Task Request: Cc1cc(C)cc(COCC(=O)O)c1
## Result 1.01

## Task Next record, please: O=C(O)COCc1cc(Cl)cc(Cl)c1
## Result 1.076

## Task Further, for O=C(O)COCc1ccc(Cl)c(Cl)c1 ?
## Result 1.083

## Task Param item: Nc1ccc(OCC(=O)O)cc1
## Result 1

## Task Try this compound next: Cc1ccc(OCC(=O)O)cc1C
## Result 1.027

## Task Try this compound next: CN(C)c1ccc(OCC(=O)O)cc1.Cl
## Result 1.022

## Task # repeat for CC(C)(Oc1ccc(Cl)cc1)C(=O)Oc1ccccc1C(=O)O
## Result 1.022

## Task Cool, now O=C(O)COCc1ccc(Cl)cc1
## Result 1.065
